Reference for the values: ChEMBL document CHEMBL1131231

Let's look at some compounds and their measured Protection.
Tested on: Candida albicans
PROTOCOL_SUMMARY: In vivo antifungal activity against murine candidosis model after peroral administration with 0.5 mg/kg at various time intervals. (percent protection for 100% mortality with untreated group)
Assay type: functional
RUN_PARAMETERS: route oral
Express your answer in %, writing the number without its unit.

Some entries whose results are on file:
{"columns": ["MOLECULE_SMILES", "Protection, %"],
 "data": [
  ["Cc1nc(COc2ccc(Cl)cc2)sc1C(=O)N[C@H](C)[C@](O)(Cn1cncn1)c1ccc(F)cc1F", 30],
  ["C[C@@H](NC(=O)c1ccc(-c2ccc(Cl)cc2)cc1)[C@](O)(Cn1cncn1)c1ccc(F)cc1F", 100],
  ["OC(Cn1cncn1)(Cn1cncn1)c1ccc(F)cc1F", 100]
]}

Proceed to the following item.
Exercise: Fill blank: measured Protection of the compound "C[C@H]([C@](O)(Cn1cncn1)c1ccc(F)cc1F)S(C)(=O)=O" is ____.
Key: 100
